Hi there, I'd appreciate the recorded IC50 for every entry that follows.

Provide value of IC50 for this record tested with UniProt:P23458: N#CC[C@]1(n2cc(-c3ncnc4[nH]ccc34)cn2)C[C@H](N2CCC(Oc3cc(CN4CCC[C@@H]4CO)cc(C(F)(F)F)n3)CC2)C1 < 10 nM

Provide value of IC50 for this record tested with UniProt:P23458: N#CC[C@]1(n2cc(-c3ncnc4[nH]ccc34)cn2)C[C@H](N2CCC(Oc3cc(CN4CC(O)C4)cc(C(F)(F)F)n3)CC2)C1 < 10 nM

Provide value of IC50 for this record tested with UniProt:P23458: N#CCC(CN1CCN(C(=O)c2ccc(C#N)cc2F)CC1)n1cc(-c2ncnc3[nH]ccc23)cn1 (centres unmarked) < 10 nM

Provide value of IC50 for this record tested with UniProt:P23458: N#CCC(C1CCN(c2nc3cccnc3o2)C1)n1cc(-c2ncnc3[nH]ccc23)cn1 (centres unmarked) < 10 nM

Provide value of IC50 for this record tested with UniProt:P23458: N#CCC(CN1CCN(C(=O)c2ccc(C#N)cc2F)CC1)n1ccc(-c2ncnc3[nH]ccc23)c1 (centres unmarked) < 10 nM

Provide value of IC50 for this record tested with UniProt:P23458: N#CC[C@]1(n2cc(-c3ncnc4[nH]ccc34)cn2)C[C@H](N2CCC(Oc3cc(CCO)cc(C(F)(F)F)n3)CC2)C1 < 10 nM

Provide value of IC50 for this record tested with UniProt:P23458: C[C@@H](O)c1nc2cnc3ccsc3c2n1[C@H]1CC[C@H](CC#N)OC1 < 100 nM

Provide value of IC50 for this record tested with UniProt:P23458: C[C@@H](CO)NCc1cc(OC2CCN([C@H]3C[C@](CC#N)(n4cc(-c5ncnc6[nH]ccc56)cn4)C3)CC2)nc(C(F)(F)F)c1 < 10 nM

Provide value of IC50 for this record tested with UniProt:P23458: N#CCC1(n2cc(-c3ncnc4[nH]ccc34)cn2)CN([C@H]2CC[C@@H](Oc3cc(CCO)nc(C(F)(F)F)n3)CC2)C1 < 10 nM

Provide value of IC50 for this record tested with UniProt:P23458: N#CCC(C1CCN(c2cccc(Cl)n2)C1)n1cc(-c2ncnc3[nH]ccc23)cn1 (single isomer, unassigned) < 10 nM

Provide value of IC50 for this record tested with UniProt:P23458: N#CCC1(n2cc(-c3ncnc4[nH]ccc34)cn2)CN(C2CCN(C(=O)c3ccnc(C(F)(F)F)c3F)CC2)C1 < 10 nM

Provide value of IC50 for this record tested with UniProt:P23458: C[C@H](NC(=O)c1cc(F)c(N2CC(CC#N)(n3cc(-c4ncnc5[nH]ccc45)cn3)C2)cc1F)C(F)(F)F < 10 nM

Provide value of IC50 for this record tested with UniProt:P23458: N#CC[C@]1(n2cc(-c3ncnc4[nH]ccc34)cn2)C[C@H](N2CCC(Oc3cc(CN4CCC[C@H]4CO)cc(C(F)(F)F)n3)CC2)C1 < 10 nM

Provide value of IC50 for this record tested with UniProt:P23458: N#CCC1(n2cc(-c3ncnc4[nH]ccc34)cn2)CN(C2CCN(C(=O)Nc3ccc(F)cc3C(F)(F)F)CC2)C1 < 10 nM

Reference source: patent US9732097B2
